Source of measurements: patent US20230143612A1

Test system: PD-L1 His protein / PD-1 Fc protein (Homo sapiens)
Sequence (Q9NZQ7 19-238 limits assumed): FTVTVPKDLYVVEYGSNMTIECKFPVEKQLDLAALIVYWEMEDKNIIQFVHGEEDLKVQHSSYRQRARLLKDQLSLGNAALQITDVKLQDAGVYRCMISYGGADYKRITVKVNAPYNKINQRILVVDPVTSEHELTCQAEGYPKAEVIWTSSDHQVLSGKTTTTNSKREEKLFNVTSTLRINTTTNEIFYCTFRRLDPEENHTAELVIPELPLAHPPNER
Protocol summary: HTRF Assay (PD-1/PD-L1 interaction)
Run parameters: PD-L1 His 6 nM, PD-1 Fc 6 nM
Recorded pIC50 by entry
FYI, pIC50 means -log10 of a concentration in mol per litre.

[
  {
    "Compound": "COc1nc(-c2cccc(-c3cccc(-c4ccn5c(=O)c(CN[C@H]6C[C@](C)(O)C6)c(C)nc5c4)c3Cl)c2Cl)ccc1CN[C@H]1C[C@](C)(O)C1",
    "Test system": "PD-L1 His protein / PD-1 Fc protein (Homo sapiens)",
    "pIC50": 9.05
  }
]

Incoming: Give the reported value of pIC50 for this record: "Cc1c(COc2cc(OCc3cncc(C#N)c3)c(CNCCO)cc2Cl)cccc1-c1cccc(-c2ccn3c(=O)c(CNCCO)cnc3c2)c1C"
Outgoing: 8.92

Incoming: Specify pIC50 for "COc1nc(-c2cccc(-c3cccc(-c4ccn5c(=O)c(CN6C[C@H](O)C[C@@H]6C(=O)O)cnc5c4)c3Cl)c2Cl)ccc1CNC[C@@H]1CCC(=O)N1" and stop.
Outgoing: 8.96

Incoming: Give recorded pIC50. COc1nc(-c2cccc(-c3cccc(-c4ccn5c(=O)c(CNC[C@@H]6CCC(=O)N6)cnc5c4)c3Cl)c2Cl)ccc1C1=NCCC(C(=O)O)N1 (mixture of isomers)
Outgoing: 9.05

Incoming: Supply measured pIC50 of "Cc1c(COc2cc(OCc3cncc(C#N)c3)c(CN3CCCC[C@H]3C(=O)O)cc2Cl)cccc1-c1cccc(-c2ccn3c(=O)c(CN4CCCC[C@H]4C(=O)O)cnc3c2)c1C" in your reply.
Outgoing: 9.22
